Test system: HL-60 cells
Assay: HL-60 cell differentiation (nitro blue tetrazolium reduction)
Format: cell-based, human
Details: FIG. 2
Recorded endpoint: EC50

INSERT INTO assay_data (molecule, recorded_endpoint, result) VALUES
  ('C=C1/C(=C\C=C2/CCC[C@]3(C)[C@@H]([C@H](C)CCCC(C)(C)O)CC[C@@H]23)C[C@@H](O)C[C@@H]1O [1,25(OH)2D3, 1α,25-dihydroxyvitamin D3, reference compound]', 'EC50', '3 nM');
